# assay.overview: activity coefficient (dimensionless); of the first substance listed, at infinite dilution; xn = mol fraction of the nth substance listed
# test.conditions: 338.15 K; 101.33 kPa; Liquid; Chromatography; x1 = 0
Use Satisfied when the recorded activity coefficient is no lower than 4; use Not satisfied when it is lower.

Solved entries (count: 5):
CC(C)=O [acetone] + CC[N+](C)(CC)CCOC.O=S(=O)([N-]S(=O)(=O)C(F)(F)F)C(F)(F)F : Not satisfied
CC1CCCCC1 [methylcyclohexane] + CC[N+](C)(CC)CCOC.O=S(=O)([N-]S(=O)(=O)C(F)(F)F)C(F)(F)F : Satisfied
COC(C)(C)C [2-methoxy-2-methylpropane] + CC[N+](C)(CC)CCOC.O=S(=O)([N-]S(=O)(=O)C(F)(F)F)C(F)(F)F : Not satisfied
CCCCCC [hexane] + CC[N+](C)(CC)CCOC.O=S(=O)([N-]S(=O)(=O)C(F)(F)F)C(F)(F)F : Satisfied
C1CCCCC1 [cyclohexane] + CC[N+](C)(CC)CCOC.O=S(=O)([N-]S(=O)(=O)C(F)(F)F)C(F)(F)F : Satisfied

Has CC(C)CC(C)(C)C [2,2,4-trimethylpentane] + CC[N+](C)(CC)CCOC.O=S(=O)([N-]S(=O)(=O)C(F)(F)F)C(F)(F)F a recorded activity coefficient greater than or equal to 4?
Satisfied

Has CCC(C)CC [3-methylpentane] + CC[N+](C)(CC)CCOC.O=S(=O)([N-]S(=O)(=O)C(F)(F)F)C(F)(F)F a recorded activity coefficient greater than or equal to 4?
Satisfied

Has C1CCCCCC1 [cycloheptane] + CC[N+](C)(CC)CCOC.O=S(=O)([N-]S(=O)(=O)C(F)(F)F)C(F)(F)F a recorded activity coefficient greater than or equal to 4?
Satisfied

Has C=CCCCCCC [oct-1-ene] + CC[N+](C)(CC)CCOC.O=S(=O)([N-]S(=O)(=O)C(F)(F)F)C(F)(F)F a recorded activity coefficient greater than or equal to 4?
Satisfied

Hello, the source for this data is the NIST ThermoML archive (doi:10.1016/j.jct.2016.07.017), in case you need it.
